# Tested on: SK-MEL-5 melanoma
# Assay procedure: NCI tumour cell line growth inhibition, 48 h
Parameter measured: GI50

Molecule | Result
Cc1ccc(NC2=C(Cl)C(=O)N(Cc3ccccc3)C2=O)cc1Cl | 5.64 µM
COc1cccc(Cn2c(-c3nonc3NC(C)=O)nc3ccccc32)c1 | 3.76 µM
Oc1ccc(-c2cn3cc(Cl)sc3n2)cc1 | 29.8 µM
COc1nc(N)nc2c1ncn2[C@@H]1O[C@H](CO)[C@@H](O)[C@@H]1O | > 100 µM
CC1OC(n2c3ccccc3c3c4c(c5c6ccccc6[nH]c5c32)C(=O)N(CCN2CCOCC2)C4=O)CC(O)C1O (centres undefined) | 1.59 µM
O=C1CC[C@H](c2ccc(O)c3c2C(=O)[C@@H]2O[C@@H]2C3=O)c2cccc(O)c21 | 3.54 µM
O=C(NCCNc1nccc(-c2c(-c3ccc(F)cc3)nc3sccn23)n1)c1ccccc1 | 1.66 µM
COc1cc(/C=C2\C(=O)N(c3ccccc3)c3ccccc32)cc(OC)c1OC | 7.29 µM
O=C(O)c1cccc2cccc(C(=O)O)c12.[Hg] | 14 µM
